From: patent US20230077362A1

Please provide measured pest or weed control at 50 µg/cm2 for the entries that follow.
System: Beet Armyworm (Spodoptera exigua) ("BAW"), second instar larvae
Assay: Bioassay on beet armyworm (BAW), 128-well diet tray assay
Type: in vivo
Settings: Spodoptera exigua, read-out: BAW (Biological Results, rating)

Worked examples, 4 molecules total:
>>> recorded_result("Cc1ccc(OCCC(F)(F)F)c(N2C(=O)CS/C2=N\\C(=O)Nc2ccc(-c3ncn(-c4ccc(OC(F)(F)F)cc4)n3)cc2)c1")
"50 to 100%"
>>> recorded_result("Cc1ccc(C(C)C)c(N2C(=O)CS/C2=N\\C(=O)Nc2ccc(-c3ncn(-c4ccc(OC(F)(F)F)cc4)n3)cc2O)c1")
"50 to 100%"
>>> recorded_result("COc1ccc(C(C)C)c(N2C(=O)CS/C2=N\\C(=O)Nc2ccc(-c3ncn(-c4ccc(OC(F)(F)F)cc4)n3)cc2C(C)C)c1")
"50 to 100%"
>>> recorded_result("Cc1ccc(COCC(F)(F)F)c(N2C(=O)CS/C2=N\\C(=O)Nc2ccc(-c3ncn(-c4ccc(OC(F)(F)F)cn4)n3)cc2C#N)c1")
"50 to 100%"

Hey, quick one: what's pest or weed control at 50 µg/cm2 for each of these?
1. CCCc1ccc(N(C)C)cc1N1C(=O)CS/C1=N\C(=O)Nc1ccc(-c2ncn(-c3ccc(OC(F)(F)F)cn3)n2)cc1C#N
2. CCCN(CCC)c1ccc(C(C)C)c(N2C(=O)CS/C2=N\C(=O)Nc2ccc(-c3ncn(-c4ccc(OC(F)(F)F)cc4)n3)cc2F)c1
3. Cc1ccc(OCC(F)(F)F)c(N2C(=O)CS/C2=N\C(=O)Nc2ccc(-c3ncn(-c4ccc(SC(F)(F)F)cc4)n3)cc2F)c1
4. COC(C)c1ccc(C)cc1N1C(=O)CS/C1=N\C(=O)Nc1c(C)cc(-c2ncn(-c3ccc(OC(F)(F)F)cc3)n2)cc1C (stereo not shown)
5. CC(C)c1cc(F)c(N(C)C)cc1N1C(=O)CS/C1=N\C(=O)Nc1ccc(-c2ncn(-c3ccc(OC(F)(F)F)cn3)n2)cc1F
6. COc1ccc(CC(F)(F)F)c(N2C(=O)CS/C2=N\C(=O)NC(C)Cc2ccc(-c3ncn(-c4ccc(OC(F)(F)F)cc4)n3)cc2)c1 (stereo not shown)
7. Cc1ccc(C(C)C)c(N2C(=O)CS/C2=N\C(=O)Nc2ccc(-c3ncn(-c4ccc(C(F)(F)F)cn4)n3)cc2)c1
8. Cc1ccc(OCCC(F)(F)F)c(N2C(=O)CS/C2=N\C(=O)Nc2ccc(-c3ncn(-c4ccc(C#N)cc4)n3)cc2F)c1

["50 to 100%", "50 to 100%", "50 to 100%", "50 to 100%", "50 to 100%", "50 to 100%", "50 to 100%", "50 to 100%"]

For the molecule CC(C)c1ccc(N(C)C)cc1N1C(=O)CS/C1=N\C(=O)Nc1ccc(-c2ncn(-c3cccc(C(F)(F)F)c3)n2)cc1 , what pest or weed control at 50 µg/cm2 is on record?
50 to 100%

###

Test system: Beet Armyworm (Spodoptera exigua) ("BAW"), second instar larvae
Assay: Bioassay on beet armyworm (BAW), 128-well diet tray assay
Type: in vivo
Settings: Spodoptera exigua, read-out: BAW (Biological Results, rating)
Please provide measured pest or weed control at 50 µg/cm2 for the entries that follow.

>>> recorded_result("CC(=O)N(C)c1ccc(C(C)C)c(N2C(=O)CS/C2=N\\C(=O)Nc2ccc(-c3ncn(-c4ccc(OC(F)(F)F)cc4)n3)cc2F)c1")
"50 to 100%"
>>> recorded_result("Cc1ccc(COCC(F)(F)F)c(N2C(=O)CS/C2=N\\C(=O)Nc2ccc(-c3ncn(-c4ccc(OC(F)(F)F)cc4)n3)cc2O)c1")
"50 to 100%"

Query compound follows.
For the compound Cc1ccc(CC(C)C)c(N2C(=O)CS/C2=N\C(=O)Nc2ccc(-c3ncn(-c4ccc(OC(F)(F)F)cc4)n3)cc2F)c1 , what pest or weed control at 50 µg/cm2 is on record?
50 to 100%
